# ASSAY_PROCEDURE: NCI Yeast Anticancer Drug Screen. Data for the cln2 rad14 strain (AID 165);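 note: 0% = growth equal to vehicle treated cultures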
# RUN_CONDITIONS: S. cerevisiae cln2 rad14 strain, stronger effect = higher value; at 50.0 µM unless noted
The panel holds about 79,000 compounds, 15% with a hit somewhere; the sample as a whole holds those more often. Calls of active or inactive are those of the source. Cut-off read from the data, not from the text of the source: active = growth inhibition above about 70%; inactive = the rest.
MEASUREMENT_TYPE: growth inhibition

{"columns": ["COMPOUND", "MEASUREMENT_TYPE", "VALUE"],
 "data": [
  ["COC(=O)N1C=NC2C3(C)C(C)=C(C)C3(C)C21C (stereo unspecified)", "growth inhibition", "-24.9% (inactive)"],
  ["N#Cc1[nH]c(=O)n(-c2ccc([N+](=O)[O-])cc2)c1N", "growth inhibition", "-1.7% (inactive)"],
  ["CC1C(c2ccccc2)OCCN1C(=S)Nc1ccccc1 (stereo unspecified)", "growth inhibition", "-16.6% (inactive)"],
  ["CCSC(SCC)C(NC(C)=O)C(O)C(O)C(O)CO (stereo unspecified)", "growth inhibition", "12.7% (inactive)"],
  ["Cc1cccc(C(C)C)c1N1C(=O)C(=O)C(c2nc3ccccc3o2)C(=O)C1=O", "growth inhibition", "39.1% (inactive)"],
  ["O=C(CCc1ccccc1)On1nnc2ccccc2c1=O", "growth inhibition", "9.9% (inactive)"],
  ["O=C1C=C(C2=CC(=O)c3cccc(O)c3C2=O)C(=O)c2c(O)cccc21", "growth inhibition", "-46% (inactive)"],
  ["O=C(CNC(=O)C(CSC(c1ccccc1)c1ccccc1)NC(=O)C(CSC(c1ccccc1)(c1ccccc1)c1ccccc1)NC(=O)OCc1ccccc1)OC(c1ccccc1)c1ccccc1 (stereo unspecified)", "growth inhibition", "-4.25% (inactive)"],
  ["CC(C)NS(=O)(=O)OCC(O)(CC(Cl)(Cl)Cl)c1ccccc1 (stereo unspecified)", "growth inhibition", "21.9% (inactive)"],
  ["Cc1nc2ccc(Br)cc2c(=O)n1-c1ccc(-c2n[nH]c(=S)n2-c2ccccc2)cc1", "growth inhibition", "-27.9% (inactive)"],
  ["C=CCOC(=O)CC(=C)C(=O)O", "growth inhibition", "-24.8% (inactive)"],
  ["CN(C)/C=N/n1c2ccccc2c2ccccc21", "growth inhibition", "-7.55% (inactive)"],
  ["CC(=O)N(C(=O)CC(=O)NNCc1ccccc1Cl)c1ccc(Cl)cc1", "growth inhibition", "-11.4% (inactive)"],
  ["O=[N+]([O-])c1ccc[nH]1", "growth inhibition", "15.3% (inactive)"],
  ["CCC(O)c1ccc(OCc2ccccc2)c(OC)c1 (stereo unspecified)", "growth inhibition", "-43.1% (inactive)"],
  ["Cc1nc(Nc2cccc(Cl)c2)c2cnn(-c3ccc(Cl)cc3)c2n1", "growth inhibition", "-41.4% (inactive)"],
  ["O=C(NO)/C(CC(=O)c1cccc(O)c1)=N\\O", "growth inhibition", "-8.55% (inactive)"],
  ["CC(C)(C(N)C(=O)O)C(N)C(=O)O (stereo unspecified)", "growth inhibition", "-11.9% (inactive)"],
  ["COc1ccccc1-n1c(=O)c(N=Nc2ccc(C)cc2)c(O)n(-c2ccccc2C)c1=S", "growth inhibition", "-44.1% (inactive)"],
  ["CC(C)[Si]1(C(C)C)OCC2OC(n3ccc(=O)[nH]c3=O)C([Se]c3ccccc3)C2O[Si](C(C)C)(C(C)C)O1 (stereo unspecified)", "growth inhibition", "-17.2% (inactive)"],
  ["O=[N+]([O-])c1ccc(N2N=NC(c3ccccc3)C2(c2ccccc2)N2CCOCC2)cc1 (stereo unspecified)", "growth inhibition", "16.7% (inactive)"],
  ["O=CC(O)C(O)C(O)C(O)C(O)C(O)CO (stereo unspecified)", "growth inhibition", "-1.55% (inactive)"],
  ["COC(=O)c1c(C)ccc(C)c1Nc1cc(C)ccc1C", "growth inhibition", "9.55% (inactive)"],
  ["N#Cc1c(N2CCCC2)nsc1Nc1ccc(F)cc1", "growth inhibition", "-16% (inactive)"],
  ["O=C1NC2OCC(O)C(O)C2O1 (stereo unspecified)", "growth inhibition", "12.4% (inactive)"],
  ["C=CCSC[C@H](NC(=O)COc1ccccc1)C(=O)NC(C(=O)OCc1ccc([N+](=O)[O-])cc1)=C(C)C", "growth inhibition", "31.1% (inactive)"],
  ["Cn1c2ccccc2c(=O)c2[nH]c3ccccc3c21", "growth inhibition", "63.5% (inactive)"],
  ["N#C/C(=C\\c1ccccc1)c1ccc(F)cc1", "growth inhibition", "18.4% (inactive)"],
  ["Nc1nc2c(ncn2-c2ccc(Br)cc2)c(=O)[nH]1", "growth inhibition", "32.1% (inactive)"],
  ["CCOC(=O)N(C)C1(c2ccccc2)CCN(CCCC(=O)c2ccc(F)cc2)CC1", "growth inhibition", "-26.6% (inactive)"],
  ["N#Cc1[nH]c(=O)n(-c2ccccc2)c1N", "growth inhibition", "-22.4% (inactive)"]
]}
